target: KRAS G13C (Homo sapiens, UniProt P01116+P62937, G13C); assay: Disruption of BRAF RBD interaction with Ras (FRET / MOA assay, with Cyclophilin A); type: biochemical; conditions: KRAS G13C FRET data, IC50
Sequence (P01116 1-169 isoform P01116-2 G13C, one chain of several): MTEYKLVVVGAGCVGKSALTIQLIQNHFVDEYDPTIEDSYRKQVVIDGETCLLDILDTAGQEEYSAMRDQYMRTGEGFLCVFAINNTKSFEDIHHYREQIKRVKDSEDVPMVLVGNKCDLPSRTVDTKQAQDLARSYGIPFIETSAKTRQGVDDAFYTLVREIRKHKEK
pIC50: −log10 of the molar value.
pIC50 values for the compounds below.
measuredQuantity: pIC50

compound	tgt	measuredQuantity	reported
CCn1c(-c2cnccc2COC)c2c3cc(ccc31)-c1cc(O)cc(c1)C[C@H](NC(=O)[C@H](C(C)C)N(C)C(=O)[C@H]1CCCO1)C(=O)N1CCC[C@H](N1)C(=O)OCC(C)(C)C2 [Example A90]	KRAS G13C (Homo sapiens, UniProt P01116+P62937, G13C)	pIC50	6.00 to 7.00
CCn1c(-c2cccnc2[C@H](C)OC)c2c3cc(ccc31)-c1csc(n1)C[C@H](NC(=O)[C@H](C(C)C)N(C)C(=O)N1CCOC[C@@H]1CN(C)C)C(=O)N1CCC[C@H](N1)C(=O)OCC(C)(C)C2 [Example A572]	KRAS G13C (Homo sapiens, UniProt P01116+P62937, G13C)	pIC50	5.00 to 6.00
CCN1C[C@@H](C(=O)N(C)[C@H](C(=O)N[C@H]2Cc3cc(O)cc(c3)-c3ccc4c(c3)c(c(-c3cnccc3COC)n4CC)CC(C)(C)COC(=O)[C@@H]3CCCN(N3)C2=O)C(C)C)CC1=O [Example A262]	KRAS G13C (Homo sapiens, UniProt P01116+P62937, G13C)	pIC50	6.00 to 7.00
CCn1c(-c2cnccc2COC)c2c3cc(ccc31)-c1cc(O)cc(c1)C[C@H](NC(=O)[C@H](C(C)C)N(C)C(=O)[C@H](C)O)C(=O)N1CCC[C@H](N1)C(=O)OCC(C)(C)C2 [Example A93]	KRAS G13C (Homo sapiens, UniProt P01116+P62937, G13C)	pIC50	6.00 to 7.00
CCn1c(-c2cccnc2[C@H](C)OC)c2c3cc(ccc31)-c1csc(n1)C[C@H](NC(=O)[C@H](C(C)C)N(C)C(=O)N1CC(N)(C#N)C1)C(=O)N1CCC[C@H](N1)C(=O)OCC(C)(C)C2 [Example A456]	KRAS G13C (Homo sapiens, UniProt P01116+P62937, G13C)	pIC50	6.00 to 7.00

* * *

IC50: recorded values
target: KRAS G12D (Homo sapiens, UniProt P01116+P62937, G12D); experiment: Disruption of BRAF RBD interaction with Ras (FRET / MOA assay, with Cyclophilin A); type: biochemical; details: KRAS G12D FRET data, IC50
Sequence (P01116 1-169 isoform P01116-2 G12D limits assumed, one chain of several): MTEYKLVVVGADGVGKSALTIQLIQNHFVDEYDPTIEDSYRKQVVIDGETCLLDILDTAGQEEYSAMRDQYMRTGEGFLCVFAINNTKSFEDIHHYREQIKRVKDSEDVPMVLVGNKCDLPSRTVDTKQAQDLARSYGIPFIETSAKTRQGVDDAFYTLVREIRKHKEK

compound	IC50
CCn1c(-c2cnccc2COC)c2c3cc(ccc31)-c1cc(O)cc(c1)C[C@H](NC(=O)[C@H](C(C)C)N(C)C(=O)OC1CCOC1)C(=O)N1CCC[C@H](N1)C(=O)OCC(C)(C)C2 (stereo partly drawn)	1 to 10 µM
CCn1c(-c2cccnc2[C@H](C)OC)c2c3cc(ccc31)-c1csc(n1)C[C@H](NC(=O)[C@H](C(C)C)N(C)C(=O)N1CC(N)(C#N)C1)C(=O)N1CCC[C@H](N1)C(=O)OCC(C)(C)C2	1 to 10 µM
CCn1c(-c2cnccc2COC)c2c3cc(ccc31)-c1cc(O)cc(c1)C[C@H](NC(=O)[C@H](C(C)C)N(C)C(=O)[C@H]1CCN(C=O)C1)C(=O)N1CCC[C@H](N1)C(=O)OCC(C)(C)C2	1 to 10 µM

* * *

target: KRAS G12V (Homo sapiens, UniProt P01116+P62937, G12V); experiment: Disruption of BRAF RBD interaction with Ras (FRET / MOA assay, with Cyclophilin A); format: biochemical; details: KRAS G12V; read-out: KRAS G12V FRET data IC50
Sequence (P01116 1-169 isoform P01116-2 G12V limits assumed): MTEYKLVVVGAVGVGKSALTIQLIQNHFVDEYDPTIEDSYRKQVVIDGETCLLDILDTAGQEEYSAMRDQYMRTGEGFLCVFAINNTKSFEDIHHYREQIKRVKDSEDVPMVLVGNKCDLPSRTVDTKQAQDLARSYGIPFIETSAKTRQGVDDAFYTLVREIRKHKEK
Sequence (P62937 whole entry): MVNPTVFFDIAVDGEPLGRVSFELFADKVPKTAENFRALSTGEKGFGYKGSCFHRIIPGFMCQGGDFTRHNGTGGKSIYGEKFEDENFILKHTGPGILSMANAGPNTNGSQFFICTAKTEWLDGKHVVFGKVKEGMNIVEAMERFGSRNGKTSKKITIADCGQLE
pIC50: −log10 of the molar value.
Entries annotated with measured pIC50

compound	pIC50
C=CC(=O)N1CC[C@H](C(=O)N(C)[C@H](C(=O)N[C@H]2Cc3cc(O)cc(c3)-c3ccc4c(c3)c(c(-c3cccc(CN(C)C)c3)n4CC)CC(C)(C)COC(=O)[C@@H]3CCCN(N3)C2=O)C(C)C)C1 [Example A030]	5.00 to 6.00
CCn1c(-c2cnccc2COC)c2c3cc(ccc31)-c1cc(O)cc(c1)C[C@H](NC(=O)[C@H](C(C)C)N(C)C(=O)[C@H]1CCOC1)C(=O)N1CCC[C@H](N1)C(=O)OCC(C)(C)C2 [Example A26]	6.00 to 7.00
C=CC(=O)N1CC(OC[C@H](C(=O)N[C@H]2Cc3cccc(c3)-c3ccc4c(c3)c(c(-c3cccnc3[C@H](C)OC)n4CC)CC(C)(C)COC(=O)[C@@H]3CCCN(N3)C2=O)C(C)C)C1 (racemic) [Example A484]	< 5.00
CCn1c(-c2cccnc2[C@H](C)OC)c2c3cc(ccc31)-c1csc(n1)C[C@H](NC(=O)[C@H](C(C)C)N(C)C(=O)N1C[C@H]3OCCN(C)[C@H]3C1)C(=O)N1CCC[C@H](N1)C(=O)OCC(C)(C)C2 (atropisomer, axis not shown) [Example A451]	6.00 to 7.00

* * *

test system: P70S6K (Thr389) phosphorylation (mTORC1) in MDA-MB-468 cells; assay: Cell based AlphaLISA assay, mTOR kinase cellular assay: inhibition of p-P70S6K (T389) in MDA-MB-468 cells; conditions: Homo sapiens, read-out: pIC50 for Inhibition of mTORC1 and mTORC2 Substarte Phosphorylation p-P70S6K-(T389) (converted)
Quick reference for IC50 among some molecules

molecule	IC50
CO[C@H]1C[C@@H]2CC[C@@H](C)[C@@](O)(O2)C(=O)C(=O)N2CCCC[C@H]2C(=O)O[C@H]([C@H](C)C[C@@H]2CC[C@@H](OC(=O)NCc3cnc(N4CCN(C(=O)CCOCCN5CCN(c6ncc(C(=O)N7CCc8cc(Cn9nc(-c%10ccc%11oc(N)nc%11c%10)c%10c(N)ncnc%109)ccc8C7)cn6)CC5)CC4)nc3)[C@H](OC)C2)CC(=O)[C@H](C)/C=C(\C)[C@@H](O)[C@@H](OC)C(=O)[C@H](C)C[C@H](C)/C=C/C=C/C=C/1C [Example 51]	≤ 1 nM
CO[C@H]1C[C@@H]2CC[C@@H](C)[C@@](O)(O2)C(=O)C(=O)N2CCCC[C@H]2C(=O)O[C@H]([C@H](C)C[C@@H]2CC[C@@H](OC(=O)NCc3cnc(N4CCN(C(=O)CN(C)CC(=O)NCCOCCOCCC(=O)NCCCCn5nc(-c6ccc7oc(N)nc7c6)c6c(N)ncnc65)CC4)nc3)[C@H](OC)C2)C[C@@H](OC)[C@H](C)/C=C(\C)[C@@H](O)[C@@H](OC)C(=O)[C@H](C)C[C@H](C)/C=C/C=C/C=C/1C [Example 104]	≤ 1 nM
CO[C@H]1C[C@@H]2CC[C@@H](C)[C@@](O)(O2)C(=O)C(=O)N2CCCC[C@H]2C(=O)O[C@H]([C@H](C)C[C@@H]2CC[C@@H](OC(=O)NCCOCCOCCOCCOCCOCCOCCC(=O)N3CCC(N4CCC(C(=O)N5CCc6cc(Cn7nc(-c8ccc9oc(N)nc9c8)c8c(N)ncnc87)ccc6C5)CC4)CC3)[C@H](OC)C2)CC(=O)[C@H](C)/C=C(\C)[C@@H](O)[C@@H](OC)C(=O)[C@H](C)C[C@H](C)/C=C/C=C/C=C/1C [Example 48]	≤ 1 nM

* * *

target: KRAS G13D (Homo sapiens, UniProt P01116+P62937, G13D); assay: Ras-Raf disruption / FRET / MOA assay (BRAF RBD); assay type: biochemical; details: Ras-Raf disruption, with Cyclophilin A; read-out: KRAS G13D FRET data IC50
Sequence (P01116 1-169 isoform P01116-2 G13D limits assumed, one chain of several): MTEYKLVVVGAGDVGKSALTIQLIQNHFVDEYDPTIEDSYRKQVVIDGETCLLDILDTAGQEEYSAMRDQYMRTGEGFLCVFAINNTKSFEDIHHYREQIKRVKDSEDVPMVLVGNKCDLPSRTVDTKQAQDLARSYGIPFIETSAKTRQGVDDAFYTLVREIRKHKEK
pIC50: −log10 of the molar value.
Listed here: items and their measured pIC50.
measuredQuantity: pIC50

compound	reported
CCn1c(-c2cccnc2[C@H](C)OC)c2c3cc(ccc31)-c1cc(O)cc(c1)C[C@H](NC(=O)[C@H](C(C)C)N(C)C(=O)[C@H]1C[C@H]3CC[C@@H](C1)N3C(=O)[C@H]1CN1)C(=O)N1CCC[C@H](N1)C(=O)OCC(C)(C)C2 (atropisomer, axis not shown)	6.00 to 7.00
CCn1c(-c2cccnc2[C@H](C)OC)c2c3cc(ccc31)-c1csc(n1)C[C@H](NC(=O)[C@H](C(C)C)N(C)C(=O)N1CC(N(C)C(=O)[C@@H]3CN3)C1)C(=O)N1CCC[C@H](N1)C(=O)OCC(C)(C)C2 (atropisomer, axis not shown)	6.00 to 7.00
CCn1c(-c2cccnc2[C@H](C)OC)c2c3cc(ccc31)-c1cc(O)cc(c1)C[C@H](NC(=O)[C@H](C(C)C)N(C)C(=O)N(C)C1CN(C(=O)[C@H]3CN3)C1)C(=O)N1CCC[C@H](N1)C(=O)OCC(C)(C)C2 (atropisomer, axis not shown)	6.00 to 7.00
CCn1c(-c2cccnc2[C@H](C)OC)c2c3cc(ccc31)-c1cccc(c1)C[C@H](NC(=O)[C@H](C(C)C)N(C)C(=O)[C@H]1CC[C@H](N=C=NC(C)C)C1)C(=O)N1CCC[C@H](N1)C(=O)OCC(C)(C)C2	< 5.00
